Reference for the values: paper PMC8479016

# measured_target: SARS-CoV-2 M^pro (Severe acute respiratory syndrome coronavirus 2)
# test_protocol: biochemical
# Type: biochemical
measured_parameter: IC50 (µM)
Please give a number only; it is taken to be in µM.

The molecule listed as Cc1c(O)cccc1C(=O)N[C@@H](CSc1ccccc1)[C@H](O)CN1C[C@H]2CCCC[C@H]2C[C@H]1C(=O)NC(C)(C)C [nelfinavir] shows IC50 equal to 41.5

---

Overview of recorded pKd for various compounds
# measured_target: SARS-CoV-2 M^pro (Severe acute respiratory syndrome coronavirus 2)
# test_protocol: biochemical
# Format: binding
In simple prose, pKd is minus the logarithm base ten of a concentration in moles per litre.

compound="CC(C)(C)NC(=O)[C@@H]1C[C@@H]2CCCC[C@@H]2CN1C[C@@H](O)[C@H](Cc1ccccc1)NC(=O)[C@H](CC(N)=O)NC(=O)c1ccc2ccccc2n1 [Saquinavir]" measured_parameter=pKd endpoint_value=5.53

Switching to the query record.
Sample Cc1c(O)cccc1C(=O)N[C@@H](CSc1ccccc1)[C@H](O)CN1C[C@H]2CCCC[C@H]2C[C@H]1C(=O)NC(C)(C)C [nelfinavir] ; pKd observed: 5.63

---

# Test system: SARS-CoV-2
# test_protocol: Antiviral activity assay in infected Vero E6 cells, viral RNA copies by qRT-PCR
# Type: cell-based
# particulars: Severe acute respiratory syndrome coronavirus 2, Vero C1008; Vero E6, MOI 0.01, 48 h after infection
measured_parameter: pEC50
The quantity pEC50 is defined as the negative base-10 logarithm of the molar concentration.

Result for CN1CCN(c2ccc(C(=O)Nc3n[nH]c4ccc(Cc5cc(F)cc(F)c5)cc34)c(NC3CCOCC3)c2)CC1 , tested on SARS-CoV-2, pEC50: 6.70
